Molecular target: FSH receptor (Homo sapiens, UniProt P23945)
Sequence (P23945 18-695): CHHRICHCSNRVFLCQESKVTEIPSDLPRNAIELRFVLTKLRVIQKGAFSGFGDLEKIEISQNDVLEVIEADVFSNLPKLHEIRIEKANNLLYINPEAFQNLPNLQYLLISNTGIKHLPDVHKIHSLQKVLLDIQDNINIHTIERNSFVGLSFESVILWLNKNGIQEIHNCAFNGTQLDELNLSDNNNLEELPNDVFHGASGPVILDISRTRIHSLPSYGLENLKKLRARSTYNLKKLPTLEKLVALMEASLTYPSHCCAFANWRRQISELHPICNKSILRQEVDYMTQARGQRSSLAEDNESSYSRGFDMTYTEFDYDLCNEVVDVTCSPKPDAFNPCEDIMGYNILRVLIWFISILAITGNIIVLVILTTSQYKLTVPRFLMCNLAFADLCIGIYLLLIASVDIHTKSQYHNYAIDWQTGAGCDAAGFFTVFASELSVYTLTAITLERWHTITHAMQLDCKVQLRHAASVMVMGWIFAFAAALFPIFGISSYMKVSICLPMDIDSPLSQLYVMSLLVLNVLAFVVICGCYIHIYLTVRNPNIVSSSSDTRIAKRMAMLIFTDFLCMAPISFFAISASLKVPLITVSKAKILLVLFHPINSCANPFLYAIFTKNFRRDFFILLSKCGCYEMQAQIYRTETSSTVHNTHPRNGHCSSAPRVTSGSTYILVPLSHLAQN
Experiment: FSH assay: cAMP response element luciferase reporter in CHO cells expressing recombinant FSH receptor
Details: agonist activity; CHO cells stably transfected with recombinant FSH receptor; luciferase luminescence; log-dose-response curves; incubation 37° C. for 3 hrs 30 min; read-out: ED50 (the source's name)
Parameter Measured: EC50 (nM)

1. CCCCCCCN1CCN(S(=O)(=O)c2cccs2)C(C(=O)Nc2ccc3[nH]c4c(c3c2)CCNC4=O)C1 (centres unmarked) :: 1200
2. CCCCCCN1CCN(S(=O)(=O)c2cccs2)[C@H](C(=O)Nc2ccc3c(c2)c2ccccc2n3CC)C1 :: 380
3. CCCCCCN1CCN(S(=O)(=O)N(C)C)C(C(=O)Nc2ccc3c(c2)nc(-c2cccnc2)n3CC)C1 (centres unmarked) :: 242
4. CCOC(=O)CNC(=O)N1CCN(S(=O)(=O)c2cccs2)[C@H](C(=O)Nc2ccc3c(c2)c2ccccc2n3CC)C1 :: 408
5. CCCCCCN1CCN(S(=O)(=O)CCCC)[C@H](C(=O)Nc2ccc3c(c2)nc(-c2cccnc2)n3CC)C1 :: 170
6. CCn1c2ccccc2c2cc(NC(=O)[C@@H]3CN(C(=O)NCCc4c[nH]cn4)CCN3S(=O)(=O)c3cccs3)ccc21 :: 6250
7. CCCCC(=O)N1CCN(S(=O)(=O)c2cccs2)[C@H](C(=O)Nc2ccc3c(c2)c2ccccc2n3CC)C1 :: 402
8. CCCCCCN1CCN(S(=O)(=O)c2ccccc2F)[C@H](C(=O)Nc2ccc3c(c2)nc(-c2cccnc2)n3CC)C1 :: 74

Data provenance: patent US7754722B2
